For each entry below, report its pIC50 value.
# pIC50: negative log10 of molar concentration; output just the value

The molecule CCN(C)C(=O)Oc1ccc2c(c1)C=CC(C)N(C)C2CCOc1ccc([N+](=O)[O-])cc1 (configuration not stated) , tested on Acetylcholinesterase (Homo sapiens, UniProt P22303), showed pIC50 of 7.85

The molecule CCN(C)C(=O)Oc1ccc(C(CCOc2ccc([N+](=O)[O-])cc2)NC)cc1 (configuration not stated) , tested on Acetylcholinesterase (Homo sapiens, UniProt P22303), showed pIC50 of 7.00

###

molecular target: Voltage-dependent calcium channel subunit alpha-2/delta-1 (Homo sapiens)
Sequence (P54289 25-956 limits assumed): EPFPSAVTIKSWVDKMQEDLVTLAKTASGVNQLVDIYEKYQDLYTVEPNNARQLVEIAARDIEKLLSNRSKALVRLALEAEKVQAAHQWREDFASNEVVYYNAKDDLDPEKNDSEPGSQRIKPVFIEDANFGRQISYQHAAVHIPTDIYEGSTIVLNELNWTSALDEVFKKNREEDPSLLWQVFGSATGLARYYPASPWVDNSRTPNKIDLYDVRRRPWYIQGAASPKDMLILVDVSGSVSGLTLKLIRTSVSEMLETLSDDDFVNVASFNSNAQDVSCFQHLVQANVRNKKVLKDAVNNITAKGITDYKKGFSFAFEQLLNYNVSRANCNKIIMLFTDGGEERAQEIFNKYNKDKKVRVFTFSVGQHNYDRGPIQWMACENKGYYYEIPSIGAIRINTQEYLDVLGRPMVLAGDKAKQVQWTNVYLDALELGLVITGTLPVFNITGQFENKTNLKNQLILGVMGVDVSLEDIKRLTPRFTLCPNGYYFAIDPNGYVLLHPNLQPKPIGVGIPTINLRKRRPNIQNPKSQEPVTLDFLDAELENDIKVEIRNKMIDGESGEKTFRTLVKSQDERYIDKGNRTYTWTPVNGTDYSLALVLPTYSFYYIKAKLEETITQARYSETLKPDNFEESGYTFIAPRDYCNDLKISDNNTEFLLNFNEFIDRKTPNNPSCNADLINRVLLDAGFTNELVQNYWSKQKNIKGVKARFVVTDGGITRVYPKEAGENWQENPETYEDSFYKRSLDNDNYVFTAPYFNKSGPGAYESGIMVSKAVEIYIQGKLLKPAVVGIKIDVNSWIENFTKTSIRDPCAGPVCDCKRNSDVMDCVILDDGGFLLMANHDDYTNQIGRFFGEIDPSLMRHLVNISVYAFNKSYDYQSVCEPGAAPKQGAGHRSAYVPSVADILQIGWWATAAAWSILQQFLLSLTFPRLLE
Sequence (P54289 957-1103 limits assumed): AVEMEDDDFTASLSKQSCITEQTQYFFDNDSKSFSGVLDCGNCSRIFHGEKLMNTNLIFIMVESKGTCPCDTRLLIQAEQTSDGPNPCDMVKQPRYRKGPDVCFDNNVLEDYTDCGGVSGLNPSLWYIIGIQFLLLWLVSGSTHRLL
Property Measured: Ki (nM)
// units = nM; emit number, no label

For this molecule ( CCNc1ncc2c(n1)N1CCCC1CN(c1cccc(-c3noc(C)n3)c1)C2=O (stereo unspecified) ), measured Ki is 11

Data provenance: ChEMBL document CHEMBL5226328
